B1: Ankyrin-2, residues 3571 to 3650; numbered along this chain, Q01484 (parent)
chain: ERLAYIADHLGFSWTELARELDFTEEQIHQIRIENPNSLQDQSHALLKYWLERDGKHATDTNLVECLTKINRMDIVHLME

Variants of: B1
Assay: abundance fitness (aPCA) (normalised: wild type 0, dead -1); higher = more abundant; growth selection in yeast, the domain comes from the species named
Conditions: Homo sapiens
Label y when abundance fitness >= -0.07; otherwise n.

Look over these answered cases.
{"columns": ["residue_change", "label"],
 "data": [
  ["E16P", "n"],
  ["I33H", "n"],
  ["L17T", "n"],
  ["D54Q", "n"],
  ["T15F", "n"]
]}

Quick check: does P36D have abundance fitness greater than or equal to -0.07?
y

Same for L47F
y

Same for S13M
n

Same for T24H
n
